# targetSystem: Recombinant human mPGES-1 (Homo sapiens, UniProt O14684)
# procedureDetails: In-vitro mPGES-1 enzyme inhibition assay (PGE2 formation from PGH2, HTRF detection)
# Assay type: biochemical
# experimentalConditions: 1 μM test compound; recombinant human mPGES-1 microsomal fraction; read-out: Percentage inhibition at 1 μM
observationType: inhibition at 1 µM (%)

Cc1nc2c(o1)c(C(=O)NCc1ccccc1C(F)(F)F)cc1nc(Nc3c(Cl)cccc3Cl)[nH]c12; 98.1
Cc1cc2c(o1)c(C(=O)Nc1ccc(C(F)(F)F)cc1)cc1nc(Nc3c(Cl)cncc3Cl)[nH]c12; 99
Cc1cccc(Cl)c1Nc1nc2cc(C(=O)Nc3cccc(C(F)(F)F)c3F)c3c(c2[nH]1)CC(C)(C)O3; 93.5
CC1(C)Cc2c(c(C(=O)Nc3ccc(C(F)(F)F)c[n+]3[O-])cc3nc(Nc4c(F)cccc4Cl)[nH]c23)O1; 77

###

# targetSystem: Recombinant human mPGES-1 (Homo sapiens)
# Sequence (O14684 1-152): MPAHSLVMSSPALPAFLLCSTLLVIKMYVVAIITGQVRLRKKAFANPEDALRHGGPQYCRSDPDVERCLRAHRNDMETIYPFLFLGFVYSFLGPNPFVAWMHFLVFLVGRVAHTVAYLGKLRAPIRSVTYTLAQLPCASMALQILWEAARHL
# procedureDetails: In-vitro mPGES-1 enzyme inhibition assay (PGE2 formation from PGH2, HTRF detection)
# experimentalConditions: class symbols; selected examples
pIC50: −log10 of the molar value.
// reported pIC50 for each item listed

Answered examples (8):
Cc1cccc(Cl)c1Nc1nc2cc(C(=O)Nc3ccc(F)c(F)c3F)c3c(c2[nH]1)CC(C)(C)O3; > 7.30
Cc1cc2c(o1)c(C(=O)Nc1ccc(Br)cc1)cc1nc(Nc3c(Cl)cccc3Cl)[nH]c12; > 7.30
Cc1cc(C(F)(F)F)ccc1NC(=O)c1cc2nc(Nc3c(F)cccc3Cl)[nH]c2c2c1OC(C)(C)C2; > 7.30
CC1(C)Cc2c(c(C(=O)Nc3ccc(C(F)(F)F)cn3)cc3nc(Nc4c(Cl)cccc4Cl)[nH]c23)O1; > 7.30
CC1(C)Cc2c(c(C(=O)Nc3cc(C(F)(F)F)ccc3F)cc3nc(Nc4c(F)cccc4Cl)[nH]c23)O1; > 7.30
CC1(C)Cc2c(c(C(=O)Nc3c(F)cccc3F)cc3nc(Nc4c(Cl)cccc4Cl)[nH]c23)O1; > 7.30
CC1(C)Cc2c(c(C(=O)Nc3ccccc3Br)cc3nc(Nc4c(Cl)cccc4Cl)[nH]c23)O1; > 7.30
Cn1c(Nc2c(F)cccc2Cl)nc2cc(C(=O)Nc3ccc(C(F)(F)F)nc3)c3c(c21)CC(C)(C)O3; > 7.30

[Q] Fill blank: measured pIC50 of the compound CC1(C)Cc2c(c(C(=O)NCc3ccccc3C(F)(F)F)cc3nc(Nc4c(Cl)cncc4Cl)[nH]c23)O1 is ____.
[A] > 7.30

###

# targetSystem: Recombinant human mPGES-1 (Homo sapiens, UniProt O14684)
# procedureDetails: In-vitro mPGES-1 enzyme inhibition assay (PGE2 formation from PGH2, HTRF detection)
# Assay type: biochemical
# experimentalConditions: 10 μM test compound; recombinant human mPGES-1 microsomal fraction; read-out: Percentage inhibition at 10 μM
observationType: inhibition at 10 µM (%)

Answered examples (3):
CC1(C)Cc2c(c(C(=O)NC3CCC(F)(F)CC3)cc3nc(Nc4c(Cl)cccc4Cl)[nH]c23)O1; 80.9
Cc1cccc(Cl)c1Nc1nc2cc(C(=O)Nc3cccc(C(F)(F)F)c3F)c3c(c2[nH]1)CC(C)(C)O3; 94.5
CC1(C)Cc2c(c(C(=O)NCC(F)(F)F)cc3nc(Nc4c(Cl)cccc4Cl)[nH]c23)O1; 94.3

I = CC1(C)Cc2c(c(C(=O)Nc3ccc(C(F)(F)F)cc3)cc3nc(Nc4ccc(Cl)cc4Cl)[nH]c23)O1
II = Cn1c(Nc2c(F)cccc2Cl)nc2cc(C(=O)Nc3ccc(C(F)(F)F)nc3)c3c(c21)CC(C)(C)O3
[Q] Would you let me know which has the greater inhibition at 10 µM value, I or II ? Provide the label of your selected option as the answer.
[A] II
(II: 99.9%, I: 60.2%)
